Test description: Comment Code material properties: vapor pressure, ClogP, probability of ingredient color instability, odor detection threshold, melamine formaldehyde PMC headspace response ratio and leakage, liquid dish neat product liquid-air partition coefficient
Format: physicochemical
Condition set: cell strings several class symbols together; each letter is one property class of L1
Recorded endpoint: Comment Code

The examples below pair each entry with its known result.
COc1c2ccoc2c(OC)c2oc(=O)ccc12 [Material 199]    CFGJ
CC(=O)OC12CCCC(C)(CCC3C1CC3(C)C)C2 (centres unmarked) [Material 573]    DEFHJK
CC1=CC[C@@H]2C[C@H]1C2(C)C [Material 901]    ADEFGIJKL
CC(C)(C)c1ccc(CC=O)cc1 [Material 994]    BDHJK
CCCC=CCO [Material 851]    ACEFHIKL

Indicate the recorded Comment Code value for this compound: C[C@H]1[C@@H]2C[C@H](C[C@@]13C=CC(=O)CC3)C2(C)C [Material 1143] DEFHJK

Indicate the recorded Comment Code value for this compound: C=C(C)CC(C)OC(=O)C(C)C (centres unmarked) [Material 201] ADEFGIJKL

Indicate the recorded Comment Code value for this compound: CC1CCC2CC1C2(C)C (centres unmarked) [Material 525] ADEFGIJKL

Indicate the recorded Comment Code value for this compound: OCc1ccccc1 [Material 652] ACEFGIKL

Indicate the recorded Comment Code value for this compound: CCC(C)C(=O)OC (centres unmarked) [Material 904] ACEFGIKL

Indicate the recorded Comment Code value for this compound: C=C(C)C(=O)OCCc1ccccc1 [Material 971] DHJK

Indicate the recorded Comment Code value for this compound: COC(=O)Cc1ccccc1 [Material 97] ACEFHIKL

Indicate the recorded Comment Code value for this compound: CC(=O)C(C)O (centres unmarked) [Material 760] ACEFGIKL

Indicate the recorded Comment Code value for this compound: CCc1ccccc1CC(C)(C)C=O [Material 354] BDHJK

Indicate the recorded Comment Code value for this compound: C=CCOC(=O)COc1ccccc1 [Material 743] BCGK
